meta.source: patent US20170008928A1

# target or system: human cholecystokinin-2 receptor (CCK-2R) (Homo sapiens)
# Construct: host or cells: 1321-N1 cells (plasma membranes prepared by Evotec AG Hamburg)
# Sequence (P32239 whole entry): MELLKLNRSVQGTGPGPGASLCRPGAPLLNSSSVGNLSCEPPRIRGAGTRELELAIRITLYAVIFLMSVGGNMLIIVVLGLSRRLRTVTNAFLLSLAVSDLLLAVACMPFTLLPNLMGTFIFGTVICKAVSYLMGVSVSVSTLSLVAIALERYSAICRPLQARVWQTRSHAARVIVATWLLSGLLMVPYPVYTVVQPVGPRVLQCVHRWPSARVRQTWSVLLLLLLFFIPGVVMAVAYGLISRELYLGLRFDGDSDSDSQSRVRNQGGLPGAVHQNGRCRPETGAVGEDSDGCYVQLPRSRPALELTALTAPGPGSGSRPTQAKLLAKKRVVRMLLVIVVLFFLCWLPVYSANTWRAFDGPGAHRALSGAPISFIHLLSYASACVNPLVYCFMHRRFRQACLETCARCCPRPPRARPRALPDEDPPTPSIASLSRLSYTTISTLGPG
# experiment notes: In vitro receptor binding to CCK-2R, SPA displacement of [125I]-CCK-8s from plasma membranes
Starred links: 1 amine or outer side, 2 acyl side, 3 side chain; linkers in the order of their positions; H or OH if unused. Non-standard residues stand in square brackets, D forms with d. Residues, ends and D or L forms follow the SMILES beside them. *: point of attachment. sY = N[C@@H](Cc1ccc(OS(=O)(=O)O)cc1)C(=O)O; C18 diacid = O=C(O)CCCCCCCCCCCCCCCCC(=O)*; γGlu = O=C(O)[C@H](CCC(=O)[*:2])N[*:1]; NMeF = CN[C@@H](Cc1ccccc1)C(=O)O; dNMeD = CN[C@H](CC(=O)O)C(=O)O; AEEA = NCCOCCOCC(=O)O
Assign IC50 to each entry below.

Example results:
compound	IC50
CC(C)C[C@H](NC(=O)[C@H](Cc1ccc(OS(=O)(=O)O)cc1)NC(=O)[C@@H](N)CC(=O)O)C(=O)NCC(=O)N[C@@H](Cc1c[nH]c2ccccc12)C(=O)N1CCC[C@H]1C(=O)N(C)[C@H](CC(=O)O)C(=O)N(C)[C@@H](Cc1ccccc1)C(N)=O [Example 66] (H-D[sY]LGWP[dNMeD][NMeF]-NH2)	> 10 µM
CC(C)C[C@H](NC(=O)[C@H](Cc1ccc(OS(=O)(=O)O)cc1)NC(=O)[C@H](CC(=O)O)NC(=O)COCCOCCNC(=O)COCCOCCNC(=O)CC[C@H](NC(=O)CCCCCCCCCCCCCCCCC(=O)O)C(=O)O)C(=O)NCC(=O)N[C@@H](Cc1c[nH]c2ccccc12)C(=O)N[C@@H](C)C(=O)N(C)[C@H](CC(=O)O)C(=O)N(C)[C@@H](Cc1ccccc1)C(N)=O [Example 40] ({C18 diacid-γGlu-AEEA-AEEA}-D[sY]LGWA[dNMeD][NMeF]-NH2)	> 10 µM

Continue with the compound presented below.
Task: Any idea what its IC50 is? The compound is CC(C)C[C@H](NC(=O)[C@H](Cc1ccc(OS(=O)(=O)O)cc1)NC(=O)[C@H](CC(=O)O)NC(=O)COCCOCCNC(=O)COCCOCCNC(=O)CC[C@H](NC(=O)CCCCCCCCCCCCCCCCC(=O)O)C(=O)O)C(=O)NCC(=O)N[C@@H](Cc1c[nH]c2ccccc12)C(=O)N1CCC[C@H]1C(=O)N(C)[C@H](CC(=O)O)C(=O)N(C)[C@@H](Cc1ccccc1)C(N)=O [Example 15] ({C18 diacid-γGlu-AEEA-AEEA}-D[sY]LGWP[dNMeD][NMeF]-NH2)
Result: 1 µM
